Cited source for all entries: the supplement of paper PMC12636033

- Test system: muMax20 (Max(13-93) K31hArg/K57hArg, M65Nle)
- METHOD_SUMMARY: PBM 8-mer E-score (E-score (rank enrichment, -0.5 to 0.5)); higher = stronger preferential binding
Whole data set: some 33,000 sequences, median “E-score (rank enrichment, -0.5 to 0.5)” near -0.0068, cut for the highest 2% near 0.24. This excerpt belongs to a sample that is enriched for the highest values.
Lab note: anything with PBM 8-mer E-score at or over 0.2 counts as Condition met; the rest go in Condition not met.

Take a look at these entries with their results.
>  <MONOMER_SEQUENCE>
ACATATAC

>  <CLASS_LABEL>
Condition not met

$$$$
>  <MONOMER_SEQUENCE>
GATGTGAC

>  <CLASS_LABEL>
Condition not met

$$$$
>  <MONOMER_SEQUENCE>
GGCCAAGA

>  <CLASS_LABEL>
Condition not met

$$$$
>  <MONOMER_SEQUENCE>
ATTATTAC

>  <CLASS_LABEL>
Condition met

$$$$
>  <MONOMER_SEQUENCE>
ACATATAA

>  <CLASS_LABEL>
Condition met

$$$$
>  <MONOMER_SEQUENCE>
CCAGCTCG

>  <CLASS_LABEL>
Condition not met

$$$$
>  <MONOMER_SEQUENCE>
ATTATTAA

>  <CLASS_LABEL>
Condition met

$$$$
>  <MONOMER_SEQUENCE>
ACCTATAA

>  <CLASS_LABEL>
Condition not met

$$$$
>  <MONOMER_SEQUENCE>
ATAATAAG

>  <CLASS_LABEL>
Condition met

$$$$
>  <MONOMER_SEQUENCE>
CTTATTAC

>  <CLASS_LABEL>
Condition not met

$$$$

[Q] API: above_or_equal(metric=PBM 8-mer E-score, cutoff=0.2) for item `CATGTGAG`
[A] Condition met

[Q] API: above_or_equal(metric=PBM 8-mer E-score, cutoff=0.2) for item `ACTATTAC`
[A] Condition not met

[Q] API: above_or_equal(metric=PBM 8-mer E-score, cutoff=0.2) for item `ACCTATAT`
[A] Condition met

###

- System: muMax20 (Max(13-93) K31hArg/K57hArg, M65Nle)
- METHOD_SUMMARY: PBM 8-mer E-score (E-score (rank enrichment, -0.5 to 0.5)); higher = stronger preferential binding
Whole data set: some 33,000 sequences, median “E-score (rank enrichment, -0.5 to 0.5)” near -0.0068, cut for the highest 2% near 0.24. Shown is part of a subset that was picked to be rich in the highest values.
MEASURE: PBM 8-mer E-score
Note: the reply should be a number with no unit written.

[Q] Suppose we examine the sequence `GAAAAACA` ; what PBM 8-mer E-score value has been reported?
[A] 0.16

[Q] Suppose we examine the sequence `TAAAAACA` ; what PBM 8-mer E-score value has been reported?
[A] 0.171

[Q] Suppose we examine the sequence `ATAAACTG` ; what PBM 8-mer E-score value has been reported?
[A] 0.0137

###

- System: muMax20 (Max(13-93) K31hArg/K57hArg, M65Nle)
- METHOD_SUMMARY: PBM 8-mer E-score (E-score (rank enrichment, -0.5 to 0.5)); higher = stronger preferential binding
Over roughly 33,000 sequences, “E-score (rank enrichment, -0.5 to 0.5)” has its median near -0.0068; the highest 2% begin near 0.24. The full list was thinned out, with the highest values kept by preference.
MEASURE: PBM 8-mer E-score
Note: the reply should be a number with no unit written.

Use these answered entries as a reference point.
>  <MONOMER_SEQUENCE>
ATCCGCGC

>  <TESTED_TARGET>
muMax20 (Max(13-93) K31hArg/K57hArg, M65Nle)

>  <MEASURE>
PBM 8-mer E-score

>  <NUMERIC_RESULT>
-0.227

$$$$
>  <MONOMER_SEQUENCE>
ACCACGCG

>  <TESTED_TARGET>
muMax20 (Max(13-93) K31hArg/K57hArg, M65Nle)

>  <MEASURE>
PBM 8-mer E-score

>  <NUMERIC_RESULT>
0.3

$$$$
>  <MONOMER_SEQUENCE>
CATAATTA

>  <TESTED_TARGET>
muMax20 (Max(13-93) K31hArg/K57hArg, M65Nle)

>  <MEASURE>
PBM 8-mer E-score

>  <NUMERIC_RESULT>
0.237

$$$$
>  <MONOMER_SEQUENCE>
AATCACGT

>  <TESTED_TARGET>
muMax20 (Max(13-93) K31hArg/K57hArg, M65Nle)

>  <MEASURE>
PBM 8-mer E-score

>  <NUMERIC_RESULT>
0.385

$$$$
>  <MONOMER_SEQUENCE>
GATAATTA

>  <TESTED_TARGET>
muMax20 (Max(13-93) K31hArg/K57hArg, M65Nle)

>  <MEASURE>
PBM 8-mer E-score

>  <NUMERIC_RESULT>
0.127

$$$$

[Q] Suppose we examine the sequence `CCCACGCA` ; what PBM 8-mer E-score value has been reported?
[A] -0.043

[Q] Suppose we examine the sequence `CATTAATA` ; what PBM 8-mer E-score value has been reported?
[A] 0.188

[Q] Suppose we examine the sequence `AATTAATG` ; what PBM 8-mer E-score value has been reported?
[A] 0.139

[Q] Suppose we examine the sequence `TAACGGGA` ; what PBM 8-mer E-score value has been reported?
[A] -0.0715

[Q] Suppose we examine the sequence `AATCACAT` ; what PBM 8-mer E-score value has been reported?
[A] 0.242

[Q] Suppose we examine the sequence `AGTTGCAG` ; what PBM 8-mer E-score value has been reported?
[A] 0.0866

###

- Tested on: muMax20 (Max(13-93) K31hArg/K57hArg, M65Nle)
- METHOD_SUMMARY: PBM 8-mer E-score (E-score (rank enrichment, -0.5 to 0.5)); higher = stronger preferential binding
Whole data set: some 33,000 sequences, median “E-score (rank enrichment, -0.5 to 0.5)” near -0.0068, cut for the highest 2% near 0.24. For the sample, the highest values were picked, then their nearest neighbours and some sequences at random.
Lab note: anything with PBM 8-mer E-score at or over 0.02 counts as True; the rest go in False.

>  <MONOMER_SEQUENCE>
CAAGCTGA

>  <CLASS_LABEL>
False

$$$$

[Q] API: above_or_equal(metric=PBM 8-mer E-score, cutoff=0.02) for item `CCAATGAG`
[A] False

[Q] API: above_or_equal(metric=PBM 8-mer E-score, cutoff=0.02) for item `CAATGTAC`
[A] True

[Q] API: above_or_equal(metric=PBM 8-mer E-score, cutoff=0.02) for item `CCAATCCG`
[A] False

[Q] API: above_or_equal(metric=PBM 8-mer E-score, cutoff=0.02) for item `TCTCGACA`
[A] False

[Q] API: above_or_equal(metric=PBM 8-mer E-score, cutoff=0.02) for item `CTATCAGC`
[A] True

[Q] API: above_or_equal(metric=PBM 8-mer E-score, cutoff=0.02) for item `AAAGCATA`
[A] True

[Q] API: above_or_equal(metric=PBM 8-mer E-score, cutoff=0.02) for item `CAAGCATA`
[A] True

###

- Tested on: muMax20 (Max(13-93) K31hArg/K57hArg, M65Nle)
- METHOD_SUMMARY: PBM 8-mer E-score (E-score (rank enrichment, -0.5 to 0.5)); higher = stronger preferential binding
The full ranking holds about 33,000 sequences; the median of “E-score (rank enrichment, -0.5 to 0.5)” is about -0.0068, and the highest 2% start at about 0.24. What follows is part of a selection rich in the highest values, with near analogues and random picks from the rest.
Lab note: anything with PBM 8-mer E-score at or over 0.2 counts as True; the rest go in False.

Take a look at these entries with their results.
>  <MONOMER_SEQUENCE>
GCGACACA

>  <CLASS_LABEL>
False

$$$$
>  <MONOMER_SEQUENCE>
GAGATTGC

>  <CLASS_LABEL>
False

$$$$
>  <MONOMER_SEQUENCE>
ATGTTGCA

>  <CLASS_LABEL>
False

$$$$
>  <MONOMER_SEQUENCE>
CGTATAGA

>  <CLASS_LABEL>
False

$$$$

// next entry
[Q] API: above_or_equal(metric=PBM 8-mer E-score, cutoff=0.2) for item `CAAGCGCA`
[A] True

###

- Test system: muMax20 (Max(13-93) K31hArg/K57hArg, M65Nle)
- METHOD_SUMMARY: PBM 8-mer E-score (E-score (rank enrichment, -0.5 to 0.5)); higher = stronger preferential binding
Over roughly 33,000 sequences, “E-score (rank enrichment, -0.5 to 0.5)” has its median near -0.0068; the highest 2% begin near 0.24. The list comes from a sample in which the highest values are over-represented; it also holds close analogues and randomly drawn sequences.
Reported values of PBM 8-mer E-score for individual entries
Note: the reply should be a number with no unit written.

Use these answered entries as a reference point.
>  <MONOMER_SEQUENCE>
ACCCAATA

>  <PBM 8-mer E-score>
0.132

$$$$
>  <MONOMER_SEQUENCE>
ATTATATG

>  <PBM 8-mer E-score>
0.251

$$$$
>  <MONOMER_SEQUENCE>
CTGGTCTC

>  <PBM 8-mer E-score>
-0.256

$$$$

[Q] Suppose we examine the sequence `CCAAATAC` ; what PBM 8-mer E-score value has been reported?
[A] 0.13

[Q] Suppose we examine the sequence `GGCGCAAA` ; what PBM 8-mer E-score value has been reported?
[A] -0.148

[Q] Suppose we examine the sequence `CCCAAATA` ; what PBM 8-mer E-score value has been reported?
[A] 0.176

[Q] Suppose we examine the sequence `AATAAACA` ; what PBM 8-mer E-score value has been reported?
[A] 0.171

[Q] Suppose we examine the sequence `CTTGAAAA` ; what PBM 8-mer E-score value has been reported?
[A] 0.117

[Q] Suppose we examine the sequence `GACGCTAA` ; what PBM 8-mer E-score value has been reported?
[A] -0.13

[Q] Suppose we examine the sequence `CCTAGTAC` ; what PBM 8-mer E-score value has been reported?
[A] 0.0875

[Q] Suppose we examine the sequence `CTGTTATA` ; what PBM 8-mer E-score value has been reported?
[A] 0.179

[Q] Suppose we examine the sequence `AATACTAT` ; what PBM 8-mer E-score value has been reported?
[A] 0.265

[Q] Suppose we examine the sequence `CGTGAAAA` ; what PBM 8-mer E-score value has been reported?
[A] 0.213

[Q] Suppose we examine the sequence `CGACCTGC` ; what PBM 8-mer E-score value has been reported?
[A] -0.105

[Q] Suppose we examine the sequence `ATAAGGAC` ; what PBM 8-mer E-score value has been reported?
[A] 0.0929

[Q] Suppose we examine the sequence `ATGTGTAG` ; what PBM 8-mer E-score value has been reported?
[A] 0.239

[Q] Suppose we examine the sequence `CCACGCGG` ; what PBM 8-mer E-score value has been reported?
[A] 0.416

[Q] Suppose we examine the sequence `CTCCCGAC` ; what PBM 8-mer E-score value has been reported?
[A] -0.0892

[Q] Suppose we examine the sequence `ATGTTATA` ; what PBM 8-mer E-score value has been reported?
[A] 0.193

[Q] Suppose we examine the sequence `CTTATATA` ; what PBM 8-mer E-score value has been reported?
[A] 0.226

[Q] Suppose we examine the sequence `CATCCGGA` ; what PBM 8-mer E-score value has been reported?
[A] -0.0933

[Q] Suppose we examine the sequence `AATTAAGA` ; what PBM 8-mer E-score value has been reported?
[A] 0.253
